- PROTOCOL_NOTES: self-splicing fitness, log relative to wild type (ln ratio); higher = more splicing; Tetrahymena group I intron in knt gene, E. coli kanamycin selection, DiMSum; sequences stand for … in CUCUCU…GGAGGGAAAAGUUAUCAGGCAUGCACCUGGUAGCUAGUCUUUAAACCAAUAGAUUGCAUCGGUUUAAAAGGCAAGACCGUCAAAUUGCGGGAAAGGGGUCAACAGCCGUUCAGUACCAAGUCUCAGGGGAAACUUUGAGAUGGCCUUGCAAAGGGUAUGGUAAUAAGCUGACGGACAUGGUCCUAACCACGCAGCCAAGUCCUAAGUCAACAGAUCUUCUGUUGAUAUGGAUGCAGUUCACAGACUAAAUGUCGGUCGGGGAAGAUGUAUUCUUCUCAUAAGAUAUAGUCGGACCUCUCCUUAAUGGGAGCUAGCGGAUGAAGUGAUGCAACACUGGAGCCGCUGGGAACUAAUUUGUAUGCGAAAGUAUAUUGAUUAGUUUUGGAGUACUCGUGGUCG;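 further: selection with 25 µg/mL kanamycin versus none on LB agar overnight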
- MEASUREMENT_PARAMETERS: 37 °C
Would you mind labelling by self-splicing fitness (ln)? At or over -1 is Yes, under is No.

Request: Check this sequence for self-splicing fitness (ln) at or above -1: CUCAAGCAAUAUUACGUCAC
Response: No

Request: Check this sequence for self-splicing fitness (ln) at or above -1: AACAAGCAAUAUUACGUUAC
Response: No

Request: Check this sequence for self-splicing fitness (ln) at or above -1: GUCCAGCAAUAUUACGACAC
Response: Yes

Request: Check this sequence for self-splicing fitness (ln) at or above -1: UCGCAGCAAUAUUACGAUUA
Response: Yes

Request: Check this sequence for self-splicing fitness (ln) at or above -1: AUAGAGCAAUAUUACGGGGA
Response: No

Request: Check this sequence for self-splicing fitness (ln) at or above -1: CGAUAGCAAUAUUACGGCAA
Response: No

Request: Check this sequence for self-splicing fitness (ln) at or above -1: UACGAGCAAUAUUACGUGAG
Response: No

Request: Check this sequence for self-splicing fitness (ln) at or above -1: UUAUAGCAAUAUUACGCUAA
Response: No

Request: Check this sequence for self-splicing fitness (ln) at or above -1: CGUCAGCAAUAUUACGCGCA
Response: Yes

Request: Check this sequence for self-splicing fitness (ln) at or above -1: UCGAAGCAAUAUUACGGUUU
Response: No

Request: Check this sequence for self-splicing fitness (ln) at or above -1: AAUCAGCAAUAUUACGACGA
Response: Yes

Request: Check this sequence for self-splicing fitness (ln) at or above -1: UGAAAGCAAUAUUACGCGCU
Response: Yes

Request: Check this sequence for self-splicing fitness (ln) at or above -1: CCGGAGCAAUAUUACGUCUA
Response: No

Request: Check this sequence for self-splicing fitness (ln) at or above -1: GGUUAGCAAUAUUACGAUCU
Response: Yes

Request: Check this sequence for self-splicing fitness (ln) at or above -1: GGGCAGCAAUAUUACGUAGG
Response: No

Request: Check this sequence for self-splicing fitness (ln) at or above -1: GUUAAGCAAUAUUACGCAUC
Response: Yes

Request: Check this sequence for self-splicing fitness (ln) at or above -1: GGGGAGCAAUAUUACGGUUG
Response: No

Request: Check this sequence for self-splicing fitness (ln) at or above -1: CGAGAGCAAUAUUACGCUAC
Response: No

Request: Check this sequence for self-splicing fitness (ln) at or above -1: GCCAAGCAAUAUUACGGUUC
Response: Yes

Request: Check this sequence for self-splicing fitness (ln) at or above -1: UAAUAGCAAUAUUACGUGGC
Response: No

Request: Check this sequence for self-splicing fitness (ln) at or above -1: UCGUAGCAAUAUUACGCAUU
Response: No

Request: Check this sequence for self-splicing fitness (ln) at or above -1: GCAAAGCAAUAUUACGUGUU
Response: No

Request: Check this sequence for self-splicing fitness (ln) at or above -1: AGAAAGCAAUAUUACGUGCU
Response: No

Request: Check this sequence for self-splicing fitness (ln) at or above -1: GCCUAGCAAUAUUACGCGUG
Response: Yes

Request: Check this sequence for self-splicing fitness (ln) at or above -1: GCGCAGCAAUAUUACGGUCA
Response: No

Request: Check this sequence for self-splicing fitness (ln) at or above -1: CGCUAGCAAUAUUACGUGCA
Response: Yes

Request: Check this sequence for self-splicing fitness (ln) at or above -1: AGCUAGCAAUAUUACGGAUC
Response: No

Request: Check this sequence for self-splicing fitness (ln) at or above -1: UGCAAGCAAUAUUACGUUUG
Response: No

Request: Check this sequence for self-splicing fitness (ln) at or above -1: GAUAAGCAAUAUUACGGCGG
Response: No

Request: Check this sequence for self-splicing fitness (ln) at or above -1: ACCGAGCAAUAUUACGGCCU
Response: Yes

Request: Check this sequence for self-splicing fitness (ln) at or above -1: AGCAAGCAAUAUUACGCUGC
Response: No

Request: Check this sequence for self-splicing fitness (ln) at or above -1: AUUAAGCAAUAUUACGUAAA
Response: No
